- Tested on: RXF 393 renal
- ASSAY REMARKS: NCI-60 one-dose screen, 48 h
- MEASUREMENT SETUP: 10 µM unless noted
- Description: Cells are grown in 96 well plates and exposed to the test compound for 48 hours. Compounds are tested at a single concentration, which is 10^-5 M for most compounds. The reported endpoint is percent growth (GI% or GIPRCNT), where numbers from 0 - 100% represent growth inhibition, and numbers from -100% - 0 represent cell death. For example, a value of 40 represents 60% growth inhibition. A value of 0 means no net growth occurred over the course of the experiment. […]
This is part of a sample that, as a whole, favours compounds with a hit. Of some 83,000 tested, about 20% had one in any assay. Active and inactive are the calls of the source. Rule for the calls: active = growth percent below 10; inactive = the rest.
API: response.call in active, inactive

// known answers, use as guide
{"columns": ["COMPOUND", "TEST SYSTEM", "CLASS LABEL"],
 "data": [
  ["CC/C=C\\C/C=C\\C[C@H]1C/C=C2/C(=O)C=C[C@H]2C/C=C\\CCC(=O)O1", "RXF 393 renal", "active"],
  ["O=c1c2cccc3c(Nc4ccc(F)cc4)ccc(c32)c2nc3ccccc3n12", "RXF 393 renal", "inactive"],
  ["Cc1cccc2cc(/C=C/C(=O)/C=C/c3ccc(Cl)cc3)c(=O)[nH]c12", "RXF 393 renal", "inactive"],
  ["C[C@]12CC[C@@H]3c4cc(O)c(O)cc4CC[C@H]3[C@@H]1CC[C@@H]2O", "RXF 393 renal", "inactive"],
  ["COc1cc(OC)c(C(=O)/C=C/c2ccc(C(F)(F)F)cc2)c(OC)c1", "RXF 393 renal", "inactive"]
]}

Status in this test for O=C(NNC(=S)Nc1ccccc1)c1ccccn1 ?
inactive

Returns: the outcome recorded for NC(=O)NNC(=O)c1ccccc1 in this assay.
inactive

Lab log entry: O=C(O)C(Cc1ccccc1)N1C(=O)/C(=C/C(Cl)=C/c2ccc([N+](=O)[O-])cc2)SC1=S (centres undefined) — outcome as called in the assay?
active

Write down the call the test reported for this compound. Item: COc1cc(NC(=O)CCl)ccc(=O)c1
inactive

Which outcome did this test record for the compound CC1CCc2c(sc(NC(=O)CSc3nnc4ccccn34)c2C(N)=O)C1 (centres undefined) ?
active

Can you look up the reported call for COc1cc(Cn2c(SCCC(=O)Nc3ccc(F)cc3)nc3ccccc3c2=O)cc(OC)c1OC for me?
inactive

Outcome logged for CN(C)c1nc(N)c(N=O)c(N)n1 in this assay:
inactive

Attribution: PubChem BioAssay (NCI)
